Listed molecules paired with reported NEUTROPHIL
- Species: Rattus norvegicus
- assayDetails: DrugMatrix - Regimen: Daily Repeat
- Type: toxicity, organism-based, Sprague-Dawley
- Design: regimen Daily Repeat, gender Male, age 6-8 weeks
- conditionParameters: in vivo, po, 0 mg/kg, 72 h, tissue Blood, route oral GAVAGE, dose level Control, time 3 day, […]
Write the value in % as a bare number.

Illustrative cases are given below, each with its answer.
>  <molecule>
Clc1ccc(COC(Cn2ccnc2)c2ccc(Cl)cc2Cl)cc1 (centres undefined)

>  <unitAbbreviation>
%

>  <NEUTROPHIL>
9

$$$$
>  <molecule>
CO[C@H]1/C=C/O[C@@]2(C)Oc3c(C)c(O)c4c(O)c(c(/C=N/N5CCN(C6CCCC6)CC5)c(O)c4c3C2=O)NC(=O)/C(C)=C\C=C\[C@H](C)[C@H](O)[C@@H](C)[C@@H](O)[C@@H](C)[C@H](OC(C)=O)[C@@H]1C

>  <unitAbbreviation>
%

>  <NEUTROPHIL>
8.17

$$$$
>  <molecule>
COc1cc(N)c(Cl)cc1C(=O)NC1CCN(CCCOc2ccc(F)cc2)CC1OC (centres undefined) [CISAPRIDE]

>  <unitAbbreviation>
%

>  <NEUTROPHIL>
4.5

$$$$

Task: Quick one: NEUTROPHIL for CC(C)(C)NC(=O)[C@H]1CC[C@H]2[C@@H]3CC[C@H]4NC(=O)C=C[C@]4(C)[C@H]3CC[C@]12C [FINASTERIDE] ?
Output: 11.33

----------
Listed compounds paired with reported GLUCOSE
- Species on record: Rattus norvegicus
- assayDetails: DrugMatrix - Regimen: Daily Repeat
- Type: toxicity, organism-based, Sprague-Dawley
- Design: regimen Daily Repeat, gender Male, age 6-8 weeks
- conditionParameters: in vivo, po, 0 mg/kg, 120 h, tissue Plasma, route oral GAVAGE, dose level Control, time 5 day, vehicle 100 % WATER
Write the value in mg/dL as a bare number.

Illustrative cases are given below, each with its answer.
>  <compound>
CCN(CC)CCNC(=O)c1cc(S(C)(=O)=O)ccc1OC [TIAPRIDE]

>  <endpointValue>
172

$$$$
>  <compound>
C[C@]12C=CC(=O)C=C1CC[C@@H]1[C@@H]2[C@@H](O)C[C@@]2(C)[C@H]1CC[C@]2(O)C(=O)CO [PREDNISOLONE]

>  <endpointValue>
143.33

$$$$
>  <compound>
O.O.O.O.O.O.[Cl-].[Cl-].[Sr+2] [STRONTIUM CHLORIDE HEXAHYDRATE]

>  <endpointValue>
172

$$$$

Task: Quick one: GLUCOSE for Oc1cccc(O)c1O [PYROGALLOL] ?
Output: 180.67

----------
- Organism: Rattus norvegicus
- assayDetails: DrugMatrix - Regimen: Daily Repeat
- Format: toxicity, organism-based, Sprague-Dawley
- Design: regimen Daily Repeat, gender Male, age 6-8 weeks
- conditionParameters: in vivo, po, 0 mg/kg, 72 h, tissue Blood, route oral GAVAGE, dose level Control, time 3 day, vehicle .5 % CMC
Listed compounds paired with reported NEUTROPHIL
Write the value in % as a bare number.

Illustrative cases are given below, each with its answer.
>  <compound>
CC(C(=O)O)c1ccc2oc(-c3ccc(Cl)cc3)nc2c1 (stereo not given)

>  <recordedMetric>
NEUTROPHIL

>  <endpointValue>
19

$$$$
>  <compound>
CN/C(=N/CCSCc1nc[nH]c1C)NC#N

>  <recordedMetric>
NEUTROPHIL

>  <endpointValue>
8.83

$$$$
>  <compound>
COc1cc2nc(N3CCN(C(=O)c4ccco4)CC3)nc(N)c2cc1OC

>  <recordedMetric>
NEUTROPHIL

>  <endpointValue>
7.67

$$$$
>  <compound>
Cn1c(=O)c2c(ncn2CC(O)CO)n(C)c1=O (stereo not given)

>  <recordedMetric>
NEUTROPHIL

>  <endpointValue>
12

$$$$

Task: Quick one: NEUTROPHIL for Clc1ccccc1CN1CCc2sccc2C1 ?
Output: 13.8

Task: Quick one: NEUTROPHIL for COC1=C(OC)C(=O)C(CCCCCCCCCCO)=C(C)C1=O ?
Output: 8.83
